Numbers sourced from patent US20260209362A1.

System under test: T1, mouse IL-12Rβ2 (mouse, UniProt P97378 24-874)
T1 construct: Expressed on HEK293T cells transiently transfected with a pcDNA3 plasmid (Genscript clone OMu01776); also called mIL-12RB2; NP_032380.1
T1 sequence: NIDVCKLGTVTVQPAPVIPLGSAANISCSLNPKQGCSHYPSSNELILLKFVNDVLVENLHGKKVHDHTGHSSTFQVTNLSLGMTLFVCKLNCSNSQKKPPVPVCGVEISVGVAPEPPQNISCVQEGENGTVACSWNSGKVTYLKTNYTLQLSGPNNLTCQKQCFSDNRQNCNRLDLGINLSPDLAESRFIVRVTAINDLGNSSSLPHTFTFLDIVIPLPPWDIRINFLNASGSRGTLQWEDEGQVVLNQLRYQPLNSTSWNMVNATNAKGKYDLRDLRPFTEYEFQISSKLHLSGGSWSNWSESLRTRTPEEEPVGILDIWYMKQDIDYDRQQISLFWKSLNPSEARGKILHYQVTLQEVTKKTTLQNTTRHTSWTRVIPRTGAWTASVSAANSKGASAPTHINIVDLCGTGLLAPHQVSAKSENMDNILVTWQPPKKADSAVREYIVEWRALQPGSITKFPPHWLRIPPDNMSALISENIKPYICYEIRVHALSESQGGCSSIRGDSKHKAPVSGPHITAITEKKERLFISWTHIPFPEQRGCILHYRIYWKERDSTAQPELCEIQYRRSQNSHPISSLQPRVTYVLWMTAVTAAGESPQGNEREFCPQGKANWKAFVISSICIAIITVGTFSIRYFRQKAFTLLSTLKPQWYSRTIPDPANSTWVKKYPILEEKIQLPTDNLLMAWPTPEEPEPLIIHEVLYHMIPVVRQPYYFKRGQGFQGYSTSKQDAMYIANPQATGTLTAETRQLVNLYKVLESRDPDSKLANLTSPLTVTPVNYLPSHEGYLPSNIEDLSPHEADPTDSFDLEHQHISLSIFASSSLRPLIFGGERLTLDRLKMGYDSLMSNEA
Test protocol: flow cytometry, P.E. on transfected HEK293T cells
Quantity name: dMFI
// keep it numeric: no unit symbol after the value

Just so you know, measured dMFI for anti-IL-12Rβ2 VHH clone 3CRHM14 (VHH, not shown: small tags and cut ends, periplasmic extract) VHH: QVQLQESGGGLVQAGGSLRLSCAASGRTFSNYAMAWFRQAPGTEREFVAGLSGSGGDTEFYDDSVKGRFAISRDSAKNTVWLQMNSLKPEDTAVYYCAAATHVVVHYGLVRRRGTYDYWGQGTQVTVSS came out at 412

Just so you know, measured dMFI for anti-IL-12Rβ2 VHH clone 3CRHM85 (VHH, not shown: small tags and cut ends, periplasmic extract; also called 21061) VHH: QVQLQESGGGLVQPGGSLRLSCAASRRTFSKHAMAWFRQAPGKEREFVAVVRWSGIITYYADSVKGRFTISRDDAKNTVYLQMDSLKPEDTAVYYCAAGDYRGNGYYVPGMYDYWGQGTQVTVSS came out at 157

Just so you know, measured dMFI for anti-IL-12Rβ2 VHH clone 3CRHM240 (VHH, not shown: small tags and cut ends, periplasmic extract; also called 21065) VHH: QVQLQESGGGSVQAGGSLRLSCAVSGRTVSDYAMGWFRQAPGKEREFVVAMSSSETTVYTNSVKGRITISRDNAKNAVYLQMNALKPEDTAVYYCSMGPITTFQGLARQNEYHYWGQGTQVTVSS came out at 43

Just so you know, measured dMFI for anti-IL-12Rβ2 VHH clone 3CRHM12 (VHH, not shown: small tags and cut ends, periplasmic extract) VHH: QVQLQESGGGSVQAGGSLRLSCAVSGRTVSDYAMGWFRQAPGKEREFVAAMSSSETTVYPNSVKGRITISRDNAKNAVYLQMNALKPEDTAVYYCSMGPIVTFQGLARQNEYHYWGQGTQVTVSS came out at 103

Just so you know, measured dMFI for anti-IL-12Rβ2 VHH clone 3CRHM49 (VHH, not shown: small tags and cut ends, periplasmic extract; also called 21058) VHH: QVQLQESGGGLVQAGGSLRLSCAASGRTFSNYAMAWFRQAPGTEREFVAGLSGSGGDTAFYDNSVMGRFTISRDSAKNTMWLQINNLKPEDTAVYYCAAATHVVVSYGLVRRRGTYDYWGQGTQVTVSS came out at 421

Just so you know, measured dMFI for anti-IL-12Rβ2 VHH clone 3CRHM35 (VHH, not shown: small tags and cut ends, periplasmic extract; also called 21057) VHH: QVQLQESGGGLVQAGGSLRLSCAASGRTFSNYAMAWFRQAPGTEREFVAGLSGSGGDTAFYDNSVMGRFTISRDSAKNTMWLQINNLKPEDTAVYYCAAATHVVVNYGLVRRRGTYDYWGQGTQVTVSS came out at 425

Just so you know, measured dMFI for anti-IL-12Rβ2 VHH clone 3CRHM200 (VHH, not shown: small tags and cut ends, periplasmic extract; also called 21064) VHH: QVQLQESGGGLVQPGGSLRLSCAASGRTFSNYAMAWFRQAPGTEREFVAGLSGSGGDTAFYDNSVMGRFTISRDSAKNTMWLQINNLKPEDTAVYYCAAATHVVVSYGLVRRRGTYDYWGQGTQVTVSS came out at 470
